Assay: HT1080 cell viability loss – fluorescence readout (AID 620);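 further: cells exposed to compound overnight then 4 h with Alamar Blue; 0% = vehicle DMSO and 100% = killing control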
Conditions: at 10 µM
Among all 87,000 compounds or so, about 360 (0.41%) were called active. No stated cut-off is given here; in the data, active means cytotoxicity above about 50%; inactive means the rest. The list comes from a sample in which actives are over-represented; it also holds close analogues and randomly drawn compounds.
Pick one: yes (active), no (inactive)

Use these answered entries as a reference point.
- compound: "COc1cccc(NC(=O)Nc2ccc3c(c2)N(C)C(=O)CS3)c1"
  assigned_category: "no"
- compound: "O=C(NC(Cc1ccc2c(c1)OCO2)C(=O)N1CCCC1C(=O)O)c1ccccc1 (configuration not stated)"
  assigned_category: "no"
- compound: "Cc1cccc(C)c1-n1c(C)cc(/C=C2\\NC(=O)NC2=O)c1C"
  assigned_category: "no"
- compound: "COC(=O)Cn1nc(-c2ccccc2)c2ccccc2c1=O"
  assigned_category: "no"
- compound: "CN1C(=O)CSc2ccc(NC(=O)N3CCN(c4ccccn4)CC3)cc21"
  assigned_category: "no"
- compound: "Cc1n[nH]c(C)c1S(=O)(=O)N1CCCC(C(=O)NCc2cccs2)C1 (configuration not stated)"
  assigned_category: "no"
- compound: "O=C(NC1CC1)c1sccc1-n1cccc1"
  assigned_category: "no"
- compound: "O=C(CCc1ccccc1)Nc1ccc(Cl)cn1"
  assigned_category: "yes"
- compound: "O=C1C(Cl)=C(Nc2ccccc2O)C(=O)N1c1ccccc1"
  assigned_category: "no"
- compound: "CCOc1cc(C2CC(=O)Nc3cc(C)c(C)cc32)ccc1O (configuration not stated)"
  assigned_category: "no"

Problem: Any idea what this test logged for C=CCN=C(NC#N)SCCc1ccccc1 ?
Solution: no

Problem: Any idea what this test logged for O=C(CSCc1ccccc1)Nc1ccc(Cl)cn1 ?
Solution: no

* * *

Experiment: HT1080 cell viability loss – fluorescence readout (AID 620)
Conditions: at 10 µM
Hit rate of the full screen: of about 87,000 compounds, about 360 (0.41%) were called active. No stated cut-off is given here; in the data, active means cytotoxicity above about 50%; inactive means the rest. The list comes from a sample in which actives are over-represented; it also holds close analogues and randomly drawn compounds.
Pick one: active, inactive

Problem: Any idea what this test logged for COc1cccc(Oc2cn[nH]c2-c2ccc(OC)cc2O)c1 ?
Solution: inactive

Problem: Any idea what this test logged for CCOc1ccc(Br)cc1/C(C)=N\NC1=NCCN1 ?
Solution: inactive

Problem: Any idea what this test logged for COc1ccc(Oc2cn[nH]c2-c2ccc(O)cc2O)cc1 ?
Solution: inactive

Problem: Any idea what this test logged for Cc1ccccc1NC(=O)CN1C(=O)NC2(CCCCC2)C1=O ?
Solution: inactive

Problem: Any idea what this test logged for COc1cc(C2C3=C(Nc4ncnn42)c2ccccc2CC3)cc(OC)c1OC (stereo unspecified) ?
Solution: active

Problem: Any idea what this test logged for COc1cccc(Oc2cn[nH]c2-c2ccc(O)cc2O)c1 ?
Solution: active

* * *

Experiment: HT1080 cell viability loss – fluorescence readout (AID 620);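 further: cells exposed to compound overnight then 4 h with Alamar Blue; 0% = vehicle DMSO and 100% = killing control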
Settings: at 10 µM, active compounds read high
The whole screen tested about 87,000 compounds, of which about 360 (0.41%) were called active. This excerpt belongs to a sample that is enriched for actives.
readout_type: cytotoxicity (%)
Numbers only, in %.

Some solved cases for reference:
- compound: "CCOC(=O)c1csc(NC(=O)C2CCCCC2)n1"
  readout_units: "%"
  cytotoxicity: -6.3
- compound: "CCn1c(SCC(=O)Nc2ccc3c(c2)OCCO3)nnc1-c1ccccn1"
  readout_units: "%"
  cytotoxicity: 37
- compound: "CCN1C(=O)/C(=C\\N2CCCc3ccccc32)SC1=S"
  readout_units: "%"
  cytotoxicity: 52.5
- compound: "CC1=CC(C)(C)Nc2ccc(OC(=O)CN3C(=O)C4CCCCC4C3=O)cc21 (stereo unspecified)"
  readout_units: "%"
  cytotoxicity: -1

List reported cytotoxicity for each of these compounds:
1. CC1=CC(C)(C)Nc2ccc(OC(=O)c3cccnc3)cc21
2. COC(=O)c1ccccc1S(=O)(=O)C(C)(C)C

Solution:
1. 14.7
2. 7.6

* * *

Please respond with reported cytotoxicity for every item in the list.
Test: HT1080 cell viability loss – fluorescence readout (AID 620);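 further: cells exposed to compound overnight then 4 h with Alamar Blue; 0% = vehicle DMSO and 100% = killing control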
Conditions: at 10 µM, active compounds read high
The whole screen tested about 87,000 compounds, of which about 360 (0.41%) were called active. The full list was thinned out, with actives kept by preference.

Some solved cases for reference:
- compound: "CC1(C)CC(=O)C2=C(C1)OC1=C(C(=O)CC(C)(C)C1)C2c1ccc(O)cc1O"
  readout_type: "cytotoxicity"
  observed: "63.3% (active)"
- compound: "O=S(=O)(c1ccc(S(=O)(=O)N2CCCC2)cc1)N1CCCCCC1"
  readout_type: "cytotoxicity"
  observed: "1.4% (inactive)"
- compound: "COc1ccc2nc(NC(=O)CCn3cccc3)sc2c1"
  readout_type: "cytotoxicity"
  observed: "2.1% (inactive)"
- compound: "COc1cc(NC(=O)C2CCCO2)c(C(=O)O)cc1OC (stereo not given)"
  readout_type: "cytotoxicity"
  observed: "6.7% (inactive)"
- compound: "Cc1nn(C)cc1C1C2=C(CC(C)(C)CC2=O)OC2=C1C(=O)CC(C)(C)C2"
  readout_type: "cytotoxicity"
  observed: "14.2% (inactive)"
- compound: "Cc1ccc(NC2=NCC(=O)N2Cc2ccccc2)c(C)c1"
  readout_type: "cytotoxicity"
  observed: "-14.9% (inactive)"
- compound: "CC1(C)CC(=O)C(C2C3=C(CC(C)(C)CC3=O)Oc3ccccc32)=C(O)C1 (stereo not given)"
  readout_type: "cytotoxicity"
  observed: "-2.6% (inactive)"
- compound: "CC1CCN(S(=O)(=O)c2ccc3c(c2)C(=NO)c2cc(S(=O)(=O)N4CCC(C)CC4)ccc2-3)CC1"
  readout_type: "cytotoxicity"
  observed: "4.2% (inactive)"
- compound: "COc1ccc(C2=NOC(C(=O)NCc3ccc(F)cc3)C2)cc1OC (stereo not given)"
  readout_type: "cytotoxicity"
  observed: "57.2% (active)"

Next item in the queue.
Problem: # input compound: O=S(=O)(c1ccc2c(c1)C(=NO)c1cc(S(=O)(=O)N3CCCCC3)ccc1-2)N1CCCCC1 ; wanted: its cytotoxicity
Solution: 102% (active)

* * *

Please respond with reported cytotoxicity for every item in the list.
Test: HT1080 cell viability loss – fluorescence readout (AID 620);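 further: cells exposed to compound overnight then 4 h with Alamar Blue; 0% = vehicle DMSO and 100% = killing control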
Details: at 10 µM, active compounds read high
About 360 (0.41%) of roughly 87,000 compounds were called active. The sample holds actives, similar compounds and a random draw of the others, so the mix is not that of the screen.

- molecule: "COc1cc(C(=O)Nc2nnc(CC(=O)N3CCOCC3)s2)cc(OC)c1OC"
  readout_type: "cytotoxicity"
  observed: "-1% (inactive)"

List reported cytotoxicity for each of these molecules:
1. N#Cc1c(-c2ccc(Cl)cc2)ccn2nc(C3CCCCC3)nc12
2. Cc1ccsc1C1NC(=O)c2ccccc2N1 (stereo not drawn)

Solution:
["-4% (inactive)", "7.3% (inactive)"]

List reported cytotoxicity for each of these molecules:
1. Cc1nnc(Sc2nc(Sc3nnc(C)s3)nc(N3CCN(C)CC3)n2)s1
2. CCOc1ccc(-c2nc(S(=O)(=O)c3ccccc3)c(NCc3cccnc3)o2)cc1
3. CC(C)N(c1ccccc1)c1ccc(NC(=O)C2CCCO2)cc1 (stereo not drawn)
4. CC1(C(=O)NC2CCCC2)CCC(=O)N1Cc1ccc2c(c1)OCO2 (stereo not drawn)
5. CCOc1ccc(N(C(=O)Cn2nnc3ccccc32)C(C(=O)NC(C)(C)CC)c2cccn2C)cc1 (stereo not drawn)
6. Cc1ccc(C2NC(=O)c3ccccc3N2)s1 (stereo not drawn)

Solution:
1: 59.7% (active); 2: 0.3% (inactive); 3: -3.8% (inactive); 4: 20.7% (inactive); 5: 15% (inactive); 6: 57.7% (active)

List reported cytotoxicity for each of these molecules:
1. COc1cc(NC(=O)CN2C(=O)NC(C)(CC(C)C)C2=O)cc(OC)c1 (stereo not drawn)
2. CC(C)CC(NC(=O)C1CCC(C)CC1)C(=O)NCc1ccccn1 (stereo not drawn)
3. Cc1cc(C(=O)CSc2nnc(-c3cccs3)n2Cc2ccccc2)c(C)n1C

Solution:
1: -7.9% (inactive); 2: 23.1% (inactive); 3: 4.7% (inactive)

List reported cytotoxicity for each of these molecules:
1. O=C(c1ccc(F)cc1)N1CCN(c2ncccn2)CC1
2. Cc1c(C(=O)NC2CCCCC2)oc2c1C(=O)CC(C)(C)C2
3. CCn1c(SCC(=O)Nc2ccccc2)nc2c1c(=O)n(C)c(=O)n2C
4. CC1C(=O)CCN(C(C)C)C1C (stereo not drawn)
5. COCCn1c(SCC(=O)NCc2cccs2)nnc1-c1ccc(OC)cc1
6. CC(C)(C)C1(c2ccccc2)NC(=O)N(CC(=O)N2CCOCC2)C1=O (stereo not drawn)
7. Cc1nnc(SCCn2c(N3CCN(C)CC3)nc3c2c(=O)[nH]c(=O)n3C)s1
8. COCCNC(=O)C1(C)C=CCN1C(C)=O (stereo not drawn)

Solution:
2% (inactive)
-3.7% (inactive)
-1.6% (inactive)
-13.7% (inactive)
7.9% (inactive)
2.6% (inactive)
-10.1% (inactive)
-17.3% (inactive)

List reported cytotoxicity for each of these molecules:
1. CCOC(=O)CSc1nc(-c2cccs2)nc2c1c(=O)n(C)c(=O)n2C
2. O=C(CCCN1C(=O)c2ccccc2C1=O)Nc1ccc(S(=O)(=O)N2CCOCC2)cc1

Solution:
1: 1.5% (inactive); 2: 14.1% (inactive)

Problem: # input molecule: COc1ccc2c(c1)c(=O)oc1cc(OCC(=O)N3CCCC(C)C3)ccc12 (stereo not drawn) ; wanted: its cytotoxicity
Solution: -1.8% (inactive)
